Where do these numbers come from? They come from patent US10150766B2.

- targetUnderTest: P2X7 (Homo sapiens (Human))
- Sequence (Q99572 whole entry): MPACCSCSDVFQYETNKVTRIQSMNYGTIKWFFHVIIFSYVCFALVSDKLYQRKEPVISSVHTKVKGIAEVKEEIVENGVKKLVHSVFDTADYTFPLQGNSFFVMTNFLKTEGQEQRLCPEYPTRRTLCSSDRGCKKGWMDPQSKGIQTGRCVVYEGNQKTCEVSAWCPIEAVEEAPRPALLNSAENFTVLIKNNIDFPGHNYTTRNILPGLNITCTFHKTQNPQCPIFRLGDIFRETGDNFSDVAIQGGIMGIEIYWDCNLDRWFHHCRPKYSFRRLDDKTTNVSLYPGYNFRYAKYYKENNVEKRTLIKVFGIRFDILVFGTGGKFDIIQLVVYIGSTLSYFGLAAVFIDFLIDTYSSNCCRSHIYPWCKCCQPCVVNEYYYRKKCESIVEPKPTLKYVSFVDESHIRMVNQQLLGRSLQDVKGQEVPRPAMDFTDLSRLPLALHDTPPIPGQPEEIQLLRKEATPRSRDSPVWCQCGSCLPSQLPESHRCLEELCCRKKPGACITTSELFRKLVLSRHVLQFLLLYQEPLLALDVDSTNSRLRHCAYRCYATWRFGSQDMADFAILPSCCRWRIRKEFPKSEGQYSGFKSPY
- experimentSummary: P2X7 antagonism in human peripheral blood mononuclear cells (PBMCs), IL-1β release (LPS + Bz-ATP, ELISA)
- Format: cell-based
- assaySetup: P2X7, 10 μM test compound, LPS 30 ng/ml + Bz-ATP 0.5 mM, read-out: PBMC @10 μM (% control)
experimentalReadout: remaining activity at 10 µM

Examples from the recorded data:
smilesRepr	remaining activity at 10 µM
Cc1nc(-c2ccc(F)cc2)c2c(n1)[C@H]1CCC[C@@H](C2)N1C(=O)c1ccnc(C(F)(F)F)c1Cl	-1.2%
Cc1nc(-c2ccnn2C)c2c(n1)[C@H]1CCC[C@@H](C2)N1C(=O)c1ccnc(C(F)(F)F)c1Cl	21.4%
Cc1nc(-c2ccn[nH]2)c2c(n1)[C@H]1CCC[C@@H](C2)N1C(=O)c1ccnc(C(F)(F)F)c1F	-10.2%

The measured remaining activity at 10 µM that Cc1nc(-c2cnn(C)c2)c2c(n1)[C@H]1CCC[C@@H](C2)N1C(=O)c1ccc(Cl)cc1F showed for P2X7 (Homo sapiens (Human)) is 46.8%

The measured remaining activity at 10 µM that Cc1nc(-c2ccn[nH]2)c2c(n1)[C@@H]1CCC[C@H](C2)N1C(=O)c1cccc(Cl)c1Cl showed for P2X7 (Homo sapiens (Human)) is 24.4%

The measured remaining activity at 10 µM that Cc1nc(-c2ccn[nH]2)c2c(n1)[C@H]1CCC[C@@H](C2)N1C(=O)c1ccc(Cl)cc1Cl showed for P2X7 (Homo sapiens (Human)) is -9.9%

The measured remaining activity at 10 µM that Cc1nc(-c2cnn(C)c2)c2c(n1)[C@H]1CCC[C@@H](C2)N1C(=O)c1cccc(C(F)(F)F)c1F showed for P2X7 (Homo sapiens (Human)) is 3.3%
